B1: TRIM55 (parent)
chain: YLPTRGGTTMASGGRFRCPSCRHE

- Variants of: B1
- Procedure text: protein stability index of a GFP-peptide fusion (GPS, HEK-293T) (PSI 1-6); higher = more stable;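 also: lentivirally expressed fusions sorted by FACS into six bins by GFP to DsRed ratio, PSI derived from sequencing read proportions per bin multiplied by bin number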
- Settings: c terminus: a fixed tail appended
Recorded endpoint: protein stability index
Answers are plain numbers.

As a guide, the following entries are already answered.
Mutations: P19D
protein stability index: 3.35
//
Mutations: Y1K
protein stability index: 1.46
//
Mutations: P19G
protein stability index: 2.34
//
Mutations: E24S
protein stability index: 1.53
//
Mutations: T4M
protein stability index: 1.26
//
Mutations: R15H
protein stability index: 1.39
//
Mutations: G7F
protein stability index: 1.26
//
Mutations: E24M
protein stability index: 1.6

I would be grateful if you could provide protein stability index for each of the following entries.
1. A11Y
2. Y1N

[3.34, 3.07]

I would be grateful if you could provide protein stability index for each of the following entries.
1. R22P
2. R15D
3. A11N
4. Y1V
5. S12M

1. 3.78
2. 2.78
3. 1.65
4. 1.89
5. 1.76

I would be grateful if you could provide protein stability index for each of the following entries.
1. C21N
2. R22Y
3. G6W

[3.96, 2.07, 1.46]

I would be grateful if you could provide protein stability index for each of the following entries.
1. T8M
2. Y1H

[4.36, 2.79]
